Tested on: HepG2-TUBA1B-RELA
Experiment: phenotypically active (imaging signature differs from DMSO and reproducible) at any of 0.3-9 uM (binary (1 = active, 0 = inactive)); higher = active
Settings: treatment time: 24 h
Structures can show the parent of a compound that is named as a salt.
Labels: active, inactive

[
  {
    "MOLECULE": "Cc1cccc(CN2CCN(C(c3ccccc3)c3ccc(Cl)cc3)CC2)c1 (stereo not given) [Meclizine dihydrochloride]",
    "TARGET": "HepG2-TUBA1B-RELA",
    "CLASS_NAME": "active"
  },
  {
    "MOLECULE": "O=C1C=C(O)C(=O)c2ccccc21 [2-Hydroxy-[1,4]naphthoquinone]",
    "TARGET": "HepG2-TUBA1B-RELA",
    "CLASS_NAME": "inactive"
  },
  {
    "MOLECULE": "O=C(CCCCSc1nc(-c2ccc(-c3ccccc3)cc2)cc(=O)[nH]1)NO",
    "TARGET": "HepG2-TUBA1B-RELA",
    "CLASS_NAME": "active"
  },
  {
    "MOLECULE": "Cc1ccc(NC2=CC(=O)c3sc(C)nc3C2=O)cc1 [Ryuvidine]",
    "TARGET": "HepG2-TUBA1B-RELA",
    "CLASS_NAME": "inactive"
  },
  {
    "MOLECULE": "O=C(NCCO)c1cc(C(=O)NCCO)cc(C(=O)NCCO)c1",
    "TARGET": "HepG2-TUBA1B-RELA",
    "CLASS_NAME": "inactive"
  },
  {
    "MOLECULE": "NC(=O)[C@@H](CCC(F)(F)F)N(Cc1ccc(-c2ncon2)cc1F)S(=O)(=O)c1ccc(Cl)cc1 [avagacestat]",
    "TARGET": "HepG2-TUBA1B-RELA",
    "CLASS_NAME": "inactive"
  },
  {
    "MOLECULE": "CC[N+](C)(CC)CCOC(=O)C1c2ccccc2Oc2ccccc21 [methantheline]",
    "TARGET": "HepG2-TUBA1B-RELA",
    "CLASS_NAME": "inactive"
  },
  {
    "MOLECULE": "CC(Oc1ccc(O)cc1)(P(=O)(O)O)P(=O)(O)O",
    "TARGET": "HepG2-TUBA1B-RELA",
    "CLASS_NAME": "inactive"
  },
  {
    "MOLECULE": "Nc1nc(OCC2CCCCC2)c2nc[nH]c2n1",
    "TARGET": "HepG2-TUBA1B-RELA",
    "CLASS_NAME": "inactive"
  },
  {
    "MOLECULE": "COc1ccc2c3c(c(=O)n(C)c2c1OC)C=CC(C)(C)O3 [Veprisine]",
    "TARGET": "HepG2-TUBA1B-RELA",
    "CLASS_NAME": "inactive"
  },
  {
    "MOLECULE": "CCN1/C(=C/C(C)=O)Sc2ccc(O)cc21",
    "TARGET": "HepG2-TUBA1B-RELA",
    "CLASS_NAME": "inactive"
  },
  {
    "MOLECULE": "COc1ccccc1OCCNCC(O)COc1cccc2[nH]c3ccccc3c12 (stereo not given) [Carvedilol]",
    "TARGET": "HepG2-TUBA1B-RELA",
    "CLASS_NAME": "active"
  },
  {
    "MOLECULE": "CC(C)(Sc1ccc(CCN(CCCCC2CCCCC2)C(=O)NC2CCCCC2)cc1)C(=O)O",
    "TARGET": "HepG2-TUBA1B-RELA",
    "CLASS_NAME": "inactive"
  },
  {
    "MOLECULE": "O=C1NC(=O)C(c2ccccc2[N+](=O)[O-])=C1Nc1ccc(O)c(Cl)c1",
    "TARGET": "HepG2-TUBA1B-RELA",
    "CLASS_NAME": "active"
  },
  {
    "MOLECULE": "O=C(CCCN1CCC(O)(c2ccc(Cl)cc2)CC1)c1ccc(F)cc1 [haloperidol]",
    "TARGET": "HepG2-TUBA1B-RELA",
    "CLASS_NAME": "active"
  },
  {
    "MOLECULE": "O=C1NCCCc2c1oc1ccc(O)cc21",
    "TARGET": "HepG2-TUBA1B-RELA",
    "CLASS_NAME": "active"
  },
  {
    "MOLECULE": "CNc1nc(-c2ccc3c(N)n[nH]c3c2)cc(N2C[C@@H](C(=O)NC3CCCCC3)CC[C@H]2C)n1",
    "TARGET": "HepG2-TUBA1B-RELA",
    "CLASS_NAME": "active"
  },
  {
    "MOLECULE": "O=[N+]([O-])c1cc(Cl)ccc1S(=O)(=O)c1ccccc1",
    "TARGET": "HepG2-TUBA1B-RELA",
    "CLASS_NAME": "inactive"
  },
  {
    "MOLECULE": "CCOC(=O)Nc1cc(-c2ccc(C)c(NS(C)(=O)=O)c2)nn2c(C)nnc12 [Bromosporine]",
    "TARGET": "HepG2-TUBA1B-RELA",
    "CLASS_NAME": "active"
  },
  {
    "MOLECULE": "CN(C)c1nc(N(C)C)nc(N(C)C)n1 [altretamine]",
    "TARGET": "HepG2-TUBA1B-RELA",
    "CLASS_NAME": "inactive"
  }
]
